- Test system: HT29
- procedureDetails: NCI60 five-dose screen
- Type: cell-based
- statedConditions: Homo sapiens, HT-29
quantityName: log10 of GI50 (log10 of the value in µM)
Form field - Quantity: GI50; Unit: µM; Scale: log10

# input Item CC[C@]12C=CCN3CC[C@@]4(c5ccc(OC)cc5N(C)[C@H]4[C@@](O)(C(=O)OC)[C@@H]1OC(=O)CCCC[P+](c1ccc(C)cc1)(c1ccc(C)cc1)c1ccc(C)cc1)[C@@H]32 [10a] with HT29 - log10 of GI50?
# output -0.45

# input Checklist item: log10 of GI50 tested on HT29, entry CC[C@]12C=CCN3CC[C@@]4(c5ccc(OC)cc5N(C)[C@H]4[C@@](O)(C(=O)OC)[C@@H]1OC(=O)CCC[P+](c1ccccc1)(c1ccccc1)c1ccccc1OC)[C@@H]32 , value?
# output -0.45

# input HT29 / log10 of GI50 / CC[C@]12C=CCN3CC[C@@]4(c5ccc(OC)cc5N(C)[C@H]4[C@@](O)(C(=O)OC)[C@@H]1OC(=O)CCCC[P+](c1ccc(OC)cc1)(c1ccc(OC)cc1)c1ccc(OC)cc1)[C@@H]32 [10b] : value?
# output -0.29

# input Look up log10 of GI50 with HT29 for this compound: CC[C@]12C=CCN3CC[C@@]4(c5ccc(OC)cc5N(C)[C@H]4[C@@](O)(C(=O)OC)[C@@H]1OC(=O)CCCC[P+](C1CCCCC1)(C1CCCCC1)C1CCCCC1)[C@@H]32 [10d]
# output 0.16

# input API: value(readout=log10 of GI50, system=HT29) for record CC[C@]12C=CCN3CC[C@@]4(c5ccc(OC)cc5N(C)[C@H]4[C@@](O)(C(=O)OC)[C@@H]1OC(=O)CCC[P+](C1CCCCC1)(C1CCCCC1)C1CCCCC1)[C@@H]32
# output 0.27

# input API: value(readout=log10 of GI50, system=HT29) for record CCC12C=CCN3CCC4(c5ccc(OC)cc5N(C)C4C(O)(C(=O)OC)C1OC(=O)CCC[P+](c1ccc(C)cc1)(c1ccc(C)cc1)c1ccc(C)cc1)C32 (centres unmarked)
# output -0.66

# input Item CC[C@]12C=CCN3CC[C@@]4(c5ccc(OC)cc5N(C)[C@H]4[C@@](O)(C(=O)OC)[C@@H]1OC(=O)CCC[P+](c1ccc(F)cc1)(c1ccc(F)cc1)c1ccc(F)cc1)[C@@H]32 with HT29 - log10 of GI50?
# output 1.10

# input Missing value: log10 of GI50, HT29, entry CC[C@]12C=CCN3CC[C@@]4(c5ccc(OC)cc5N(C)[C@H]4[C@@](O)(C(=O)OC)[C@@H]1OC(=O)CCCC[P+](c1ccccc1)(c1ccccc1)c1ccccc1)[C@@H]32 [compound 4, reference compound] . Fill in?
# output -0.39

====

- Test system: RPMI-8226
- procedureDetails: NCI60 five-dose screen
- Format: cell-based
- statedConditions: Homo sapiens, RPMI-8226
In this section, each of the molecules is paired with its reported log10 GI50.
Heads up: the numbers are on a log10 scale; they represent GI50 in nM.

# input Which log10 GI50 is reported for this molecule? CC[C@]12C=CCN3CC[C@@]4(c5ccc(OC)cc5N(C)[C@H]4[C@@](O)(C(=O)OC)[C@@H]1OC(=O)CCC[P+](c1ccc(F)cc1)(c1ccc(F)cc1)c1ccc(F)cc1)[C@@H]32
# output 3.31

# input # get_value(readout='log10 GI50', item= CC[C@]12C=CCN3CC[C@@]4(c5ccc(OC)cc5N(C)[C@H]4[C@@](O)(C(=O)OC)[C@@H]1OC(=O)CCC[P+](C1CCCCC1)(C1CCCCC1)C1CCCCC1)[C@@H]32 )
# output 2.58

# input # lookup: log10 GI50 of CC[C@]12C=CCN3CC[C@@]4(c5ccc(OC)cc5N(C)[C@H]4[C@@](O)(C(=O)OC)[C@@H]1OC(=O)CCC[P+](c1ccccc1)(c1ccccc1)c1ccccc1OC)[C@@H]32
# output 2.03

# input # query: log10 GI50 of entry CC[C@]12C=CCN3CC[C@@]4(c5ccc(OC)cc5N(C)[C@H]4[C@@](O)(C(=O)OC)[C@@H]1OC(=O)CCCC[P+](c1ccccc1)(c1ccccc1)c1ccccc1)[C@@H]32 [compound 4, reference compound]
# output 2.70

More entries:
# input Endpoint output: log10 GI50 of CC[C@]12C=CCN3CC[C@@]4(c5ccc(OC)cc5N(C)[C@H]4[C@@](O)(C(=O)OC)[C@@H]1OC(=O)CCCC[P+](c1ccc(C)cc1)(c1ccc(C)cc1)c1ccc(C)cc1)[C@@H]32 [10a] . Value?
# output 2.45
